- TARGET SYSTEM: CDK2/CycE1 (Homo sapiens)
- Construct: ICE Bioscience Inc. (assay service)
- ASSAY TEXT: CDK family panel, ADP-Glo
- Format: biochemical
ENDPOINT LABEL: IC50

Query: Which IC50 is reported for this molecule? C=CC(=O)Nc1cc(N(C(=O)NCc2ccccc2)[C@H]2CC[C@H](Nc3ccc(C#N)cn3)CC2)ccc1N1CCC(N(C)C)CC1
Reply: > 10000 nM

----------
- ASSAY TEXT: Pharmacokinetics study in mice
- Assay type: in vivo, ICR mice
- CONDITIONS USED: both sexes, ICR, mouse, plasma, intravenous, i.v. 2.5 mg/kg (Table S5, intraperitoneal study)
ENDPOINT LABEL: clearance (mL/min/kg)
Please state the figure in mL/min/kg; there is no need to write the unit.

Query: Which clearance is reported for this molecule? C=CC(=O)Nc1cc(N(C(=O)NCc2ccccc2)[C@H]2CC[C@H](Nc3ccc(C#N)cn3)CC2)ccc1N1CCC(N(C)C)CC1 [YJZ5118]
Reply: 25.6
